- assay.system: T1, Human Factor P (human, UniProt P27918 29-469)
- T1 construct: Bought protein (Complement Technology cat# A139) in SET and Biacore; Factor P of human serum in the functional assays; also called FP; human FP
- T1 sequence (P27918 29-469 limits assumed): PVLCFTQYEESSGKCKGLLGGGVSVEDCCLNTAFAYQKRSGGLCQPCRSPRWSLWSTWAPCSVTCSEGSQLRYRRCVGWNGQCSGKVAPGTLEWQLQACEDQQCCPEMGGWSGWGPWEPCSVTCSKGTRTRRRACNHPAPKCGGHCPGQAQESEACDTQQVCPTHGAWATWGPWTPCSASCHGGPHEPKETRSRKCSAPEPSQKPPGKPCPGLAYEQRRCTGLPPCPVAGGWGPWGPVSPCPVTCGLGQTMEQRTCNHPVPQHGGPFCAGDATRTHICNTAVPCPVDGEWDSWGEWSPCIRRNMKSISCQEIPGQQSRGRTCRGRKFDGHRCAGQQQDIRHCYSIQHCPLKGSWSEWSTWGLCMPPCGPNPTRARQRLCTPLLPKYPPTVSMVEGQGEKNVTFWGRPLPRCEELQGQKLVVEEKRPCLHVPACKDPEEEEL
- assay.notes: SET, solution equilibrium titration
- Description: In SET, a constant amount of antibody is incubated with different concentrations of antigen until equilibrium is reached. The concentration of free antibody in the equilibrated solution is determined by applying the solution on an antigen coated MSD™ plate (Meso Scale Discovery™) followed by incubation with an ECL-labeled secondary antibody and measurement of signal intensity. […]
attribute.measured: Kd (pM)
API: value field is a number in pM; no unit string.

Here's what some known entries look like.
NVS962-S (Fab, V domains shown, NVS962 with heavy chain N30 replaced with serine) VH: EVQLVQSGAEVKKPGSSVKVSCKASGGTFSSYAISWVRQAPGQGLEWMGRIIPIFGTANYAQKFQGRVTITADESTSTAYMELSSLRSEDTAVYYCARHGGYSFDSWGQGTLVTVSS VL: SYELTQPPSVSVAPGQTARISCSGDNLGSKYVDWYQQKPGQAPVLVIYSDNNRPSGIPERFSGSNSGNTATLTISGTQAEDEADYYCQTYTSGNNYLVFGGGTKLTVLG
156
NVS805 (Fab, V domains shown) VH: EVQLVQSGAEVKKPGSSVKVSCKASGGTFSSYAISWVRQAPGQGLEWMGRIIPIFGTANYAQKFQGRVTITADESTSTAYMELSSLRSEDTAVYYCARHGGYVFDSWGQGTLVTVSS VL: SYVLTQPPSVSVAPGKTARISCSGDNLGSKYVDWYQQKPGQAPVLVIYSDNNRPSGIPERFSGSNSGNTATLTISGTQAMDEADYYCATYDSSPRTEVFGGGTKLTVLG
0.3
NVS962 (Fab, V domains shown, also called Fab NVS962) VH: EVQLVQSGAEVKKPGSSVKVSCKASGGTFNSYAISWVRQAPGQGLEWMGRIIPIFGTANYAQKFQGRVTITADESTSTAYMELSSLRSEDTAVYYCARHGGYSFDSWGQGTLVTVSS VL: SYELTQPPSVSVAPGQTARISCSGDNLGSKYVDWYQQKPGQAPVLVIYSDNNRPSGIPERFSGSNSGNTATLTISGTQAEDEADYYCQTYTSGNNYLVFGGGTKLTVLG
46
NVS804 (Fab, V domains shown) VH: EVQLVQSGAEVKKPGSSVKVSCKASGGTFSSYAISWVRQAPGQGLEWMGRIIPIFGTANYAQKFQGRVTITADESTSTAYMELSSLRSEDTAVYYCARHGGYIFDSWGQGTLVTVSS VL: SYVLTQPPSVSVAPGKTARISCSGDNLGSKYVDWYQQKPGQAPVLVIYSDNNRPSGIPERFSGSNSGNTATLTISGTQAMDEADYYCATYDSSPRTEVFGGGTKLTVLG
0.8

Here is the next item to consider.
Which Kd value is on record for NVS962-T (Fab, V domains shown, NVS962 with heavy chain N30 replaced with threonine; also called NSV962-T) VH: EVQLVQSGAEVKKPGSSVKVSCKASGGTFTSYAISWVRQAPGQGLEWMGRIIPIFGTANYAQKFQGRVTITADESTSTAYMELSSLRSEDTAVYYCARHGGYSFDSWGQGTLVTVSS VL: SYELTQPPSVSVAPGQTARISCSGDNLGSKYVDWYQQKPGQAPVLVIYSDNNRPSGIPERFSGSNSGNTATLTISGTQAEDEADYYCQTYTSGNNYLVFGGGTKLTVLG ?
251
